Listed here: items and their measured pKi.
Target: T1, Mouse EphA2 (Ecto) (Mouse, UniProt Q03145 26-538)
T1 construct: extracellular domain; Fluorescence polarisation assays; not shown: Fc fusion (R&D Systems 639-A2) or C-terminal polyHis (Sino Biological 50586-M08H)
T1 sequence (Q03145 26-538): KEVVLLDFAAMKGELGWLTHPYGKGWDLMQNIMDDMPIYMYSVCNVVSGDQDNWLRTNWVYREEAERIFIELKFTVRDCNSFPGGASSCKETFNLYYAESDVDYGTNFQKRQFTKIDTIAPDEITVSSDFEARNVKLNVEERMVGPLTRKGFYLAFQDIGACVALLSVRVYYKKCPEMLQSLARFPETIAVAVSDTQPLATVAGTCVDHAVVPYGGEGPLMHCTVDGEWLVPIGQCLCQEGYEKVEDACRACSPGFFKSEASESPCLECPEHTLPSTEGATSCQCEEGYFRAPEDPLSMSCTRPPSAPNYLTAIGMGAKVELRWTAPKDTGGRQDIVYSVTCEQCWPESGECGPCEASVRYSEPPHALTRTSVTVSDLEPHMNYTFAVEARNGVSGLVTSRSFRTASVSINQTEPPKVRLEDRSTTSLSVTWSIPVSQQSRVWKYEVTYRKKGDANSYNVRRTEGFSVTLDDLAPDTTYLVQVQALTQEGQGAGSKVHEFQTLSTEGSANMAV
Test: FP competition vs Reference Compound C
pKi: −log10 of the molar value. *1 amine or outer side, *2 acyl side, *3 side chain or, on linkers, in order; H or OH if unused. Bridges are numbered along the chain shown (N, C = ends). Where no end group is shown, it is not given here. [ ]: non-standard residue; d: D form. TATA = O=C(CC[*:1])N1CN(C(=O)CC[*:2])CN(C(=O)CC[*:3])C1; βAla = NCCC(=O)O; Sar = CNCC(=O)O

[
  {
    "binder": "ARDCPLVNPLCLHPGWTCA (linker 4-11-18 via TATA; not fully specified (C-terminus)) [Compound 65]",
    "pKi": 7.41
  },
  {
    "binder": "[βAla][Sar][Sar][Sar][Sar][Sar][Sar][Sar][Sar][Sar][Sar]ACPLVNPLCLHPGWSCRGQ (linker 13-20-27 via TATA; not fully specified (C-terminus); printed as (β-Ala)-Sar10-ACPLVNPLCLHPGWSCRGQ) [Compound 89]",
    "pKi": 7.53
  },
  {
    "binder": "CPLVNPLCLHPGWSCXGQ (not fully specified; N-terminal Ac; HArg; C-terminal -Sar6-(D-K); TATA scaffold on the 3 Cys) [Compound 92]",
    "pKi": 7.12
  },
  {
    "binder": "AXDCPLVNPLCLHPGWTC (N-terminal (β-Ala)-Sar10; HArg; TATA scaffold on the 3 Cys, also called Compound 67) [BCY6014]",
    "pKi": 7.21
  },
  {
    "binder": "CPLVNPLCLHPGWTCLXG (not fully specified; N-terminal Ac; D-His; C-terminal -Sar6-(D-K); TATA scaffold on the 3 Cys) [Compound 78]",
    "pKi": 6.94
  }
]
